# target-desc: PD-1 (UniProt Q15116 25-167, limits assumed)
# Sequence (Q15116 25-167 limits assumed): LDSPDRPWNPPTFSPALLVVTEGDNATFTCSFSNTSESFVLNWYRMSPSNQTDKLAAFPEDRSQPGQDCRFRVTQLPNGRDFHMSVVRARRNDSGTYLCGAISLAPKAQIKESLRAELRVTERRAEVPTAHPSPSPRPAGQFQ
# test-method-notes: ELISA, conjugate vs WT antibody

binder	binding activity (% of WT) / %
anti-PD-1 antibody 2 light chain S30C-R4-1 (antibody, human IgG4 S228P, kappa, V domains shown, R4-1 on Cys 30) VH: QVQLVESGGGVVQPGRSLRLDCKASGITFSNSGMHWVRQAPGKGLEWVAVIWYDGSKRYYADSVKGRFTISRDNSKNTLFLQMNSLRAEDTAVYYCATNDDYWGQGTLVTVSS VL: EIVLTQSPATLSLSPGERATLSCRASQSVCSYLAWYQQKPGQAPRLLIYDASNRATGIPARFSGSGSGTDFTLTISSLEPEDFAVYYCQQSSNWPRTFGQGTKVEIKR	34.4
anti-PD-1 antibody 2 light chain Y32C-R4-1 (antibody, human IgG4 S228P, kappa, V domains shown, R4-1 on Cys 32) VH: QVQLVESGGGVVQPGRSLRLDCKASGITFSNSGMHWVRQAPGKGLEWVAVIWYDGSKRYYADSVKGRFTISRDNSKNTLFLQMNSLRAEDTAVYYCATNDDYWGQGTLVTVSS VL: EIVLTQSPATLSLSPGERATLSCRASQSVSSCLAWYQQKPGQAPRLLIYDASNRATGIPARFSGSGSGTDFTLTISSLEPEDFAVYYCQQSSNWPRTFGQGTKVEIKR	25.6
anti-PD-1 antibody 2 light chain S92C-R4-1 (antibody, human IgG4 S228P, kappa, V domains shown, R4-1 on Cys 92) VH: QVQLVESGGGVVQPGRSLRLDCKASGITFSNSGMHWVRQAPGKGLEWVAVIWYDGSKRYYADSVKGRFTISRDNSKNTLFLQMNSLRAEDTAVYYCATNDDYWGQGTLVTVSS VL: EIVLTQSPATLSLSPGERATLSCRASQSVSSYLAWYQQKPGQAPRLLIYDASNRATGIPARFSGSGSGTDFTLTISSLEPEDFAVYYCQQSCNWPRTFGQGTKVEIKR	45.5
anti-PD-1 antibody 2 light chain A25C-R4-5 (antibody, human IgG4 S228P, kappa, V domains shown, R4-5 on Cys 25) VH: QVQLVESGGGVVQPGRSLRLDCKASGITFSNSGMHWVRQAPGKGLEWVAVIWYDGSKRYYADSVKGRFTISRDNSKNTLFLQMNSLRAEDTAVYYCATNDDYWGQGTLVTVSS VL: EIVLTQSPATLSLSPGERATLSCRCSQSVSSYLAWYQQKPGQAPRLLIYDASNRATGIPARFSGSGSGTDFTLTISSLEPEDFAVYYCQQSSNWPRTFGQGTKVEIKR	87.2
anti-PD-1 antibody 2 light chain T56C-R4-5 (antibody, human IgG4 S228P, kappa, V domains shown, R4-5 on Cys 56) VH: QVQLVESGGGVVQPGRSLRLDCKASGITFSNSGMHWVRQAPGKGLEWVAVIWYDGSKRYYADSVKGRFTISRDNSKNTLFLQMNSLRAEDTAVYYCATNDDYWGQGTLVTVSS VL: EIVLTQSPATLSLSPGERATLSCRASQSVSSYLAWYQQKPGQAPRLLIYDASNRACGIPARFSGSGSGTDFTLTISSLEPEDFAVYYCQQSSNWPRTFGQGTKVEIKR	89.4
anti-PD-1 antibody 2 light chain A34C-R4-5 (antibody, human IgG4 S228P, kappa, V domains shown, R4-5 on Cys 34) VH: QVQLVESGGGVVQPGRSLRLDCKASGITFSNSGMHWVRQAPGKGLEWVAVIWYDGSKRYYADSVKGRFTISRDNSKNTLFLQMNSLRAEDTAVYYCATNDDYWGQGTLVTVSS VL: EIVLTQSPATLSLSPGERATLSCRASQSVSSYLCWYQQKPGQAPRLLIYDASNRATGIPARFSGSGSGTDFTLTISSLEPEDFAVYYCQQSSNWPRTFGQGTKVEIKR	83.9
anti-PD-1 antibody 2 light chain S31C-R4-1 (antibody, human IgG4 S228P, kappa, V domains shown, R4-1 on Cys 31) VH: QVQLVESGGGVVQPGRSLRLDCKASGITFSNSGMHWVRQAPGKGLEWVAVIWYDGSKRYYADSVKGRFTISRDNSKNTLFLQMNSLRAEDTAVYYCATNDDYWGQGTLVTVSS VL: EIVLTQSPATLSLSPGERATLSCRASQSVSCYLAWYQQKPGQAPRLLIYDASNRATGIPARFSGSGSGTDFTLTISSLEPEDFAVYYCQQSSNWPRTFGQGTKVEIKR	95.7

Every entry's value here was drawn from patent US20230158141A1.
